biological target: AAK1 (Homo sapiens, UniProt Q2M2I8); assay: KINOMEscan competition binding; conditions: read-out: %Inh AAK1
Sequence (Q2M2I8 whole entry): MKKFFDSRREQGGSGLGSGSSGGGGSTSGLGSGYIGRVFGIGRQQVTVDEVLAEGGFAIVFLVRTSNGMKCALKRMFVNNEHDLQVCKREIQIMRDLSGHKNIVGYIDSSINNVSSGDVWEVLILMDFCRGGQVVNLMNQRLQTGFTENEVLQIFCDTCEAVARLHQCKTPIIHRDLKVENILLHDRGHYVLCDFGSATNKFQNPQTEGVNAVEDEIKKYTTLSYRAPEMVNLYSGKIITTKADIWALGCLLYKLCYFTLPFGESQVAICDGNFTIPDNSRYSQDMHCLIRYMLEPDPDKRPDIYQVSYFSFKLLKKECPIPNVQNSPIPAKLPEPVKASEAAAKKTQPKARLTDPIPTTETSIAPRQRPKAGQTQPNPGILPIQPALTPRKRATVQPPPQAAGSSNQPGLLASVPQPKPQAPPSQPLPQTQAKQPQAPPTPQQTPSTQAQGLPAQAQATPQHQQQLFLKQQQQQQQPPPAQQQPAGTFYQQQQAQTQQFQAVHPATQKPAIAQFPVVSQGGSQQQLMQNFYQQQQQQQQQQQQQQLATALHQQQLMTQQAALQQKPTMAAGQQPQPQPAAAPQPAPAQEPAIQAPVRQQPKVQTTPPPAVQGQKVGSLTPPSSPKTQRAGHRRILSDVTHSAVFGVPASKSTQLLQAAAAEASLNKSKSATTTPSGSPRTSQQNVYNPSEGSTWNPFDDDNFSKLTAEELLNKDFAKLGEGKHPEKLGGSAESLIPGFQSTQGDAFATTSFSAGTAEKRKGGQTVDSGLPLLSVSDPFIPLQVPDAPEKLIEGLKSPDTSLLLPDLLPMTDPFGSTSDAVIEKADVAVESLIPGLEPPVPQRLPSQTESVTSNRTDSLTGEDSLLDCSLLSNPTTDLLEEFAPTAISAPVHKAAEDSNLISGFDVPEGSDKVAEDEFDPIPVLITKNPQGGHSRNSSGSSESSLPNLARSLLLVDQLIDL
What inhibition at 1 µM was measured for each of the following?
Give bare numbers, in %.

Before answering, review these 4 worked examples.
Cn1cc(-c2cnc(N)c3c(-c4ccc5c(c4)CCN5C(=O)Cc4ccccc4)csc23)cn1 [UNC10225012A] ... 0
COc1cccc(OC)c1C(=O)Nc1cccc(-c2nn3ccccc3c2-c2ccnc(Nc3cccc(F)c3)n2)c1 [UNC10225310A] ... 0
O=c1cc(N2CCOCC2)nc2n(Cc3cccc(Cl)c3Cl)c(C3CC3)nn12 [UNC10225469A] ... 14
CS(=O)(=O)Cc1ccc(Nc2nccc(-c3c(-c4cccc(NC(=O)C5CCCCC5)c4)nn4ncccc34)n2)cc1 [UNC10225159A] ... 0

Attention now shifts to the item below.
Task: So what does the record say about inhibition at 1 µM for Cc1ccc(NC(=O)Nc2cccc(C(F)(F)F)c2)cc1 [UNC10225187A] ?
Output: 26

* * *

What inhibition at 1 µM was measured for each of the following?
molecular target: FES (Homo sapiens, UniProt P07332); assay: KINOMEscan competition binding; details: read-out: %Inh FES
Sequence (P07332 whole entry): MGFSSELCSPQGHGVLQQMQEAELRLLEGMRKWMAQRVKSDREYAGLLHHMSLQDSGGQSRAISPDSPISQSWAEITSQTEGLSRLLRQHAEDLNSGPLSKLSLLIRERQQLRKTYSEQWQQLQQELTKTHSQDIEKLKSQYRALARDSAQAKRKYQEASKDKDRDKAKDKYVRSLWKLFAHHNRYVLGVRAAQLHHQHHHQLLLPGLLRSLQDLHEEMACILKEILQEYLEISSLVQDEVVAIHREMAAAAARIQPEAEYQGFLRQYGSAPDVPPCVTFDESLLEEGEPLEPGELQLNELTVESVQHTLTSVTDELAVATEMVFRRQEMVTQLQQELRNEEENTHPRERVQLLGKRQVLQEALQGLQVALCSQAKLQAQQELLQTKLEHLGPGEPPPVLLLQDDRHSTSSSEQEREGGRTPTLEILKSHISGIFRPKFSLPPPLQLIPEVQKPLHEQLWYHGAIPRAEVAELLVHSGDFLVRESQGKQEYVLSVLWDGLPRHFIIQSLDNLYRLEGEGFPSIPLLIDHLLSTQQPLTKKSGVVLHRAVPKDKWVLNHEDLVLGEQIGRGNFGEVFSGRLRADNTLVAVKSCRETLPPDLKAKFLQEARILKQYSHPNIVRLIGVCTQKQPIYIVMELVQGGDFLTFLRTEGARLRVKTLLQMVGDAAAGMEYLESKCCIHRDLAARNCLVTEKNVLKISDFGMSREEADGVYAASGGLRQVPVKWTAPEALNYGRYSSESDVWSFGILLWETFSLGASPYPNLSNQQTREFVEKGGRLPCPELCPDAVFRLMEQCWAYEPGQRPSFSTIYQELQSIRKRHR
One number for each entry, in %.

Before answering, review these 2 worked examples.
Cc1ccc(NC(=O)Nc2cccc(C(F)(F)F)c2)cc1 [UNC10225187A] ... 0
CS(=O)(=O)Cc1ccc(Nc2nccc(-c3c(-c4cccc(NC(=O)C5CCCCC5)c4)nn4ncccc34)n2)cc1 [UNC10225159A] ... 0

Provide reported inhibition at 1 µM for each item, in the same order as listed.
1. O=c1cc(N2CCOCC2)nc2n(Cc3cccc(Cl)c3Cl)c(C3CC3)nn12 [UNC10225469A]
2. COc1cccc(OC)c1C(=O)Nc1cccc(-c2nn3ccccc3c2-c2ccnc(Nc3cccc(F)c3)n2)c1 [UNC10225310A]
3. Cn1cc(-c2cnc(N)c3c(-c4ccc5c(c4)CCN5C(=O)Cc4ccccc4)csc23)cn1 [UNC10225012A]

Output:
1. 15
2. 20
3. 14

* * *

What inhibition at 1 µM was measured for each of the following?
target: HIPK3 (Homo sapiens, UniProt Q9H422); assay: KINOMEscan competition binding; conditions: read-out: %Inh HIPK3
Sequence (Q9H422 whole entry): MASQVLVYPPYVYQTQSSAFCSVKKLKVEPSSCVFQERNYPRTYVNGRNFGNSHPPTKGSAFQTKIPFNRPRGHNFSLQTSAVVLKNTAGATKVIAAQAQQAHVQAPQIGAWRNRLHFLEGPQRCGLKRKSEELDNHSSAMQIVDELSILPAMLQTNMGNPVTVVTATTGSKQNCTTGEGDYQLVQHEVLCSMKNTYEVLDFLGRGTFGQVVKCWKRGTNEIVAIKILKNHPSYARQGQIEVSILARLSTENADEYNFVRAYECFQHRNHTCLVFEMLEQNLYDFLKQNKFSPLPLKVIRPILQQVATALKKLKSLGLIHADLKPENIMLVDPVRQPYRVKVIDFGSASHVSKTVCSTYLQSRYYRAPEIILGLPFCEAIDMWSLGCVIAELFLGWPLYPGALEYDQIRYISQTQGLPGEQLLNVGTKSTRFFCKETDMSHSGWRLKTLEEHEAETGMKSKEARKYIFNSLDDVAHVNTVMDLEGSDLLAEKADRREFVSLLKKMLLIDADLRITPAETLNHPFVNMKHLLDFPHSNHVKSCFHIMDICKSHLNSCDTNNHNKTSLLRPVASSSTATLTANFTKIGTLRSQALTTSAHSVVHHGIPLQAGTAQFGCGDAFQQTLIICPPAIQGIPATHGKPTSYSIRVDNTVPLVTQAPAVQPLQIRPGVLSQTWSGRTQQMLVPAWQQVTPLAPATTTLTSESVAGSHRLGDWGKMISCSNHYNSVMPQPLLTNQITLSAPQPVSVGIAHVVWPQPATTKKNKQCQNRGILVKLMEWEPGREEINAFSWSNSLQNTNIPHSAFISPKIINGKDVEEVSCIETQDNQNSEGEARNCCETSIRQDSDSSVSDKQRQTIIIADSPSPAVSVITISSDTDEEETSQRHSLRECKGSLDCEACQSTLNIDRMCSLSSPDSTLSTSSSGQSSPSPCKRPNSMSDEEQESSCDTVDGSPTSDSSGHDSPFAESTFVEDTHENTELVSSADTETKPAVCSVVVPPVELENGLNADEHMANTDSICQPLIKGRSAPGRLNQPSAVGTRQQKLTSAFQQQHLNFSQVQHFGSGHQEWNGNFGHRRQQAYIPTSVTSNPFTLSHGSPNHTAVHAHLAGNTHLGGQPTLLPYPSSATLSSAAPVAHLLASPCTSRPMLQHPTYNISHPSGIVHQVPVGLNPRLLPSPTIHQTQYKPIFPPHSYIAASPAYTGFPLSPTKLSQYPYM
Give bare numbers, in %.

Before answering, review these 4 worked examples.
Cc1ccc(NC(=O)Nc2cccc(C(F)(F)F)c2)cc1 [UNC10225187A] ... 0
COc1cccc(OC)c1C(=O)Nc1cccc(-c2nn3ccccc3c2-c2ccnc(Nc3cccc(F)c3)n2)c1 [UNC10225310A] ... 0
Cn1cc(-c2cnc(N)c3c(-c4ccc5c(c4)CCN5C(=O)Cc4ccccc4)csc23)cn1 [UNC10225012A] ... 7
O=c1cc(N2CCOCC2)nc2n(Cc3cccc(Cl)c3Cl)c(C3CC3)nn12 [UNC10225469A] ... 16

Attention now shifts to the item below.
Task: So what does the record say about inhibition at 1 µM for CS(=O)(=O)Cc1ccc(Nc2nccc(-c3c(-c4cccc(NC(=O)C5CCCCC5)c4)nn4ncccc34)n2)cc1 [UNC10225159A] ?
Output: 23

* * *

biological target: EPHA5 (Homo sapiens, UniProt P54756); assay: KINOMEscan competition binding; conditions: read-out: %Inh EPHA5
Sequence (P54756 25-1037): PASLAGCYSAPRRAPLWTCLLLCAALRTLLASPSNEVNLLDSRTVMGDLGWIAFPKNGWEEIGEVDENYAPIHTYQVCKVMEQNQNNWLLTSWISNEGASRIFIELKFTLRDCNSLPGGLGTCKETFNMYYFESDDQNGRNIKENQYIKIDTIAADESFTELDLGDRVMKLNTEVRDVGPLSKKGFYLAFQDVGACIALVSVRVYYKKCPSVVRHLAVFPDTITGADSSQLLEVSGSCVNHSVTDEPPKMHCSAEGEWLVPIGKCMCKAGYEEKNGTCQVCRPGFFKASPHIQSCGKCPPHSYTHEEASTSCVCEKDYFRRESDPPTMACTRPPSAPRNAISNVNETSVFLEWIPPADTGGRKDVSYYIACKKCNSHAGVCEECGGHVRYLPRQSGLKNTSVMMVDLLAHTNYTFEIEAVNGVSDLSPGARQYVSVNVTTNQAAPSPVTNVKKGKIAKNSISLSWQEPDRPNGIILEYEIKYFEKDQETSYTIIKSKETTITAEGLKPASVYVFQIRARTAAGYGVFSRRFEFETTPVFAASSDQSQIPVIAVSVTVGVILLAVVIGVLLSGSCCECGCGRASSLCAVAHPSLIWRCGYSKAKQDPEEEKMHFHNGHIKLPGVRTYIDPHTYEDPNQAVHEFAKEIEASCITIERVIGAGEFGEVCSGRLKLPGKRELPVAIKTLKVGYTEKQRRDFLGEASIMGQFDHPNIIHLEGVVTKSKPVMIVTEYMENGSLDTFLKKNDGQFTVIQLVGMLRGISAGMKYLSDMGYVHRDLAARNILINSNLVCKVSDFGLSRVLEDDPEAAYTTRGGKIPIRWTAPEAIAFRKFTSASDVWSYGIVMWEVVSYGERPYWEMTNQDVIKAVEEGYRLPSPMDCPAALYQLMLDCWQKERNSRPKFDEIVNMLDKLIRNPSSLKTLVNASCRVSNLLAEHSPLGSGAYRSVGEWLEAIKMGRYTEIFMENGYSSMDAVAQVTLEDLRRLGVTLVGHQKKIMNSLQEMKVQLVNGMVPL
What inhibition at 1 µM was measured for each of the following?
One number for each entry, in %.

Cn1cc(-c2cnc(N)c3c(-c4ccc5c(c4)CCN5C(=O)Cc4ccccc4)csc23)cn1 [UNC10225012A] ... 0
O=c1cc(N2CCOCC2)nc2n(Cc3cccc(Cl)c3Cl)c(C3CC3)nn12 [UNC10225469A] ... 6

Provide reported inhibition at 1 µM for each item, in the same order as listed.
1. COc1cccc(OC)c1C(=O)Nc1cccc(-c2nn3ccccc3c2-c2ccnc(Nc3cccc(F)c3)n2)c1 [UNC10225310A]
2. CS(=O)(=O)Cc1ccc(Nc2nccc(-c3c(-c4cccc(NC(=O)C5CCCCC5)c4)nn4ncccc34)n2)cc1 [UNC10225159A]
3. Cc1ccc(NC(=O)Nc2cccc(C(F)(F)F)c2)cc1 [UNC10225187A]

Output:
1: 11; 2: 0; 3: 0

These data points were gathered from paper PMC5540273.
